Data provenance: paper PMC6643050

- system_under_test: Δ^1–28 L-PGDS (Homo sapiens, UniProt P41222)
- Sequence (P41222 29-190, stated change not applied): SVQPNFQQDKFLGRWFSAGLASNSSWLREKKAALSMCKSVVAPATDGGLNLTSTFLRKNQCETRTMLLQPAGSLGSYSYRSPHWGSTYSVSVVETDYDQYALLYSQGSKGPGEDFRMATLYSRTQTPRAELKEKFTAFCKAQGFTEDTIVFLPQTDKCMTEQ
- measurement_description: Fluorescence displacement binding assay
- assay_context: Ki, DAUDA (500 nM) displacement, L-PGDS 3 μM, pH 7.6, 25 °C; mean ± SE
pKi: −log10 of the molar value.
Recorded pKi for the following compounds
result_type: pKi

{"compound": "CCCCCCCCCCCCCCCC(=O)NCCO [PEA, palmitoylethanolamide]", "reported_relation": "<", "value_observed": 3.70}
{"compound": "CCCCCCCC/C=C\\CCCCCCCC(=O)NCCO [OEA, oleoylethanolamide]", "reported_relation": "<", "value_observed": 3.70}
{"compound": "CCCCC/C=C\\C/C=C\\C/C=C\\C/C=C\\CCCC(=O)NCCO", "reported_relation": "<", "value_observed": 3.70}
{"compound": "CCCCC[C@H](O)/C=C/[C@H]1[C@H](O)CC(=O)[C@@H]1C/C=C\\CCCC(=O)O [PGE2, prostaglandin E2]", "reported_relation": "=", "value_observed": 3.89}
{"compound": "CCCCCCCC/C=C\\CCCCCCCC(=O)O", "reported_relation": "=", "value_observed": 5.74}
{"compound": "CCCCCC/C=C\\CCCCCCCC(=O)O", "reported_relation": "=", "value_observed": 5.43}
